method_notes: soluble fraction after stress (log2 fold change); higher = more stays soluble; pooled small domains, quantitative proteomics;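 further: 20 min heating vs room temperature control held 20 min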
test_conditions: stress: 75 degC
readout_name: soluble fraction (log2)
Kindly provide the number alone.

Query: Value lookup for soluble fraction (log2); key = HMDKWFPVSSDHKVQVGDYLRTADGLVKVEATHNEYGTFYGKIITAIHDDVVKGETYEYRIDDVQVLA
Result: -0.00685

Query: Repeat for the following sequence: HMAYSEEERNLIRSRLKDVAAALFKEKGIRDTNIDEIYTPVGISKTFFYSFFPSKAVLAIAIMK
Result: -0.248

Query: Repeat for the following sequence: HMTNYSFIVNENFNNKRIDQVVANHYPKISRTKVNKIIKNNLLKLNGSTFNDPSAKVKLGDQIEFENL
Result: 0.434

Query: Repeat for the following sequence: HMTALAVGDRVKMDKSATIYGTMRKFAAWVYATKLYVRGIDGNRVVVSTLKSGAITGAVDKKHLTK
Result: -1.61

Query: Repeat for the following sequence: HMSTMTEQEAFGLWERINDFIARTGNEPNRNSNDAHEVRMAEALNFIRIKVAEQRNSQSNSEAQNN
Result: -0.263

Query: Repeat for the following sequence: HMQLKFTDLRKEILRMIWEGHGPQKAYDLLNKLQQTNPSAKPATVYRALDFLIGNGFIHKVASLNAFVG
Result: -0.59

Query: Repeat for the following sequence: HMGTNTTGWIKIADDWKYIDSNGEYTVNDWRQSADGGWYYLGYNGNMLKNQTTPDGYYVDAEGLWDGMSPA
Result: -0.54

Query: Repeat for the following sequence: HMGQLSDREALTVLAREALVELPRAAGDYRNGRTAALQSLVGRVMRKTAGRGNPALLQEIFRSLL
Result: -0.542

Query: Repeat for the following sequence: HMEAIYKKNKNLIHTVIRDNFPFLIDTADYEDAFQEGSIGLIRAIDRFDDGLEYKFSSYAYTAIRNQIA
Result: -1.15

Query: Repeat for the following sequence: HMKTFQSYQTTSMSNVNLRKRANGTSTILKRIKVGDTVTVVGKSGNYYQIQFDGKEGYALIKYIDGTDSGA
Result: -1.95

Query: Repeat for the following sequence: HMFMSDDDIRILVKEWLQSQNRKSYQLAEEIGIRPQTFYAQMSVRKISANTKKALSRIIPGL
Result: -0.769

Query: Repeat for the following sequence: HMPQKSDLTMEEYNKLGLAGGSGSRKLREQVGIRLSVGYGNSKQFYNRLHTFGISLDELKTAVEEVKNG
Result: 0.226

Query: Repeat for the following sequence: HMSRVHHGFNISIARNRKGLKQAALADMLGISQQRLSQLENQRVVKDEILEKVSEATGVSVEDLKTIE
Result: -0.08

Query: Repeat for the following sequence: HMSTIKEKIIQYLDFKGISKYDFYQKTGVSNGVLSQKSGMSEDNIMRFLSYYDDINTDWLFYGKGEMIKT
Result: -2.06

Query: Repeat for the following sequence: HMTKNEFLQGLKEELEGRVTHSAIQENIRYYDDYISQEVLKGSTEEEVTESLGGPRIIARTIVDAAYD
Result: 0.0243

Query: Repeat for the following sequence: HMNRTKYYDFEGHPAKVVRLTLPVYLNKIGDEVVVYDSQKFAREASPISESQYNRMVAEIFQP
Result: -0.233

Query: Repeat for the following sequence: HMPVSRMRARHEALARGVMGIHAGGFSAVYGYRKVWHGLIGKGWDPGEVGRDQVMNIMRGLGMQGVRR
Result: -0.132

Query: Repeat for the following sequence: HMSNRDNPVVLDFKKVKSTEQLDNILEEYIRENFEGYTVKGRMFSSDEGKFIIALALKDDDGKRALVYFDV
Result: -1.04

Query: Repeat for the following sequence: HMVSLSNQVFEKIEYDILSGKYKIGEIISEKRLSSELGVSRTPIREALGRLSEEGLVGDSPSGTVVLGI
Result: -0.368

Query: Repeat for the following sequence: HMAKNYYEILGLKSDATLPEIKKAFKKLSKKFHPDKNRDDDGYFESMFKSINEAYQVLIDEDKRATFDSHH
Result: -0.758

Query: Repeat for the following sequence: HMEKKDTYTVKNGDSLWGIARTELGDGGRFREIYTLNADTIEAEAKKRGRSSSSEGHWIYPGSVLRLP
Result: 0.304

Query: Repeat for the following sequence: HMHYELTPDAEKQLSALGLTAELVERILEEANDRRPIPGTNRTVYSLHGYSVEFSNTNHKIVSVRKG
Result: -0.882

Query: Repeat for the following sequence: HMKMLPAEVLTHPAVVALIERGAPTGSITPEEVRQASEDAAVEPRHLKALLAHLSALGISVQIP
Result: -0.303

Query: Repeat for the following sequence: HMGAYIPSYAPVDINAATHTVVRGDTVYNISKRYHVSQEDFRAWNGMADNTLSIGQVVKVKPAGYTAPK
Result: -0.267

Query: Repeat for the following sequence: HMGYDVAEVKFRLIKLLRDSKIGISGVEISERLGINRVTMTKYLNIFSAEGVIGEKNIGNVNLWFVYEGIE
Result: -1.62

Query: Repeat for the following sequence: HMSFGESLKKLSIALNSIRKLATTDAGKKDPKVADLLGQIRDTFNSYRTHLRKNYPDLYSGIKNQL
Result: -0.977

Query: Repeat for the following sequence: HMNNQVTFSKFLNEVEDGRVVEVNIQGNNITGVLSDGSKFKTFSPNYPNLVEKLSEKGVSINASPL
Result: 0.0934

Query: Repeat for the following sequence: HMNEDDQLLKVLLAEPLRLEELYNLDLKPQGPYNLQTWIMVHLTELERDGLIARFPDGRYGPAR
Result: -2.03

Query: Repeat for the following sequence: HMSDNLSASERKALSHMEGMESVRSSEVADLLGMSQRGAQKLLNRLVDKGLASSFGANRNRRYSVE
Result: 0.144

Query: Repeat for the following sequence: HMTIKNHIDEILKKEPFILENIKNGLINISALARQIEPQLSRKVGKKLNVNAIIMTIKRMEIDQLNK
Result: -2.25

Query: Repeat for the following sequence: HMQNGNLVDVYLNWRGKYYAIKMFFPNSKMPRRSDVQDQIVKVYPDARVQSFQVSKYVPGQPFL
Result: -2.62

Query: Repeat for the following sequence: HMSTNDIFISGDKLVLKNTTGQMDVFDMAGRKVLSSTNNVSEMNVSSLPKGVYVVSASIGGSKMKAKVYK
Result: 0.536

Query: Repeat for the following sequence: HMFPELNAEETQVVQLLQKQTEGMQVNSLVVESNIPITRMSGILFELELKGIIRNYAGGVYKL
Result: -3.2
